# Tested on: B6C3F1 mice, B16 melanoma ip, median survival T/C
# test-description: NCI In Vivo Anticancer Drug Screen. Data for tumor model B16 Melanoma (intraperitoneal) in B6C3F1 mice
# recorded-conditions: endpoint: median survival time; dose: 50.0 mg/kg/injection; schedule: Q01DX009 (ip); vehicle: saline with Tween-80
Inconclusive results and toxic doses are left out. The calls were made as follows: active = survival T/C of 150% or more; inactive = T/C below 125% in these data. Where a SMILES comes first, the peptide text is derived from it.
Can you answer with just one of these options? t for active, f for inactive

The examples below pair each entry with its known result.
>>> classification("C(=C\\c1nc2ccccc2[nH]1)/c1nc2ccccc2[nH]1")
"f"
>>> classification("CN(C=O)C(C(=O)Nc1cccc2c(OC(=O)C(N(C)C=O)(N(C)C=O)N(C)C=O)c(N=Nc3ccc(S(=O)(=O)Nc4nccs4)cc3)cc(N=Nc3ccc(S(=O)(=O)Nc4nccs4)cc3)c12)(N(C)C=O)N(C)C=O (tested in a mixture with another compound)")
"f"
>>> classification("CC(=O)NCCSC(=O)C(=O)SCCNC(C)=O")
"f"
>>> classification("Nc1nc(-c2ccc([N+](=O)[O-])cc2)c(Br)c(=O)[nH]1")
"f"
>>> classification("COc1ccc(NC(=O)Oc2ccc3c(C)cc(=O)oc3c2)c(OC)c1")
"f"
>>> classification("CCc1cccc(CC)c1-n1c(C)ccc1-c1ccccc1")
"f"
>>> classification("O=CN(SSN(C=O)C1CCCCC1)C1CCCCC1")
"f"
>>> classification("O=S(=O)(c1ccccc1)N1CN2CCN(C2)C1")
"f"
>>> classification("O=S(=O)(N=N/C=C1\\C=CC=CN1O)c1cccs1")
"f"
>>> classification("O=C1OCC2C(=O)OCC12 (configuration not stated)")
"f"

Exam item: Outcome? C=CCNc1nc2c(s1)CCc1cc(OC)c(OC)cc1-2
Marked response: f

Exam item: Query: recorded result category for CCOC(=O)NC(N)=O in this test
Marked response: f

Exam item: Per the records of this test, what outcome belongs to NC(Cc1ccc(O)cc1)C(=O)O (configuration not stated) ?
Marked response: f

Exam item: Recorded call for O=C(CCl)NC(Cc1ccc(O)cc1)C(=O)O (configuration not stated) ?
Marked response: f

Exam item: For S=C(S)N1CCCNCC1 (tested in a mixture with another compound) , which call appears in the assay record?
Marked response: f

Exam item: Hello, I am checking results. What call was entered for O=C1CN(CN2CCOCC2)C(=O)CN1CN1CCOCC1 ?
Marked response: f

Exam item: Would you mind telling me which call this test gave CC(=O)NC(Cc1ccccc1)C(=O)NC(Cc1ccccc1)C(=O)O (stereo not drawn) (Ac-Phe-Phe-OH; configuration not given here) ?
Marked response: f

Exam item: Entry CN(C)CCOc1ccc2c(c1)C/C(=C/c1ncc([N+](=O)[O-])n1C)C2=O : call = ?
Marked response: f

Exam item: So what was the verdict on C[C@]12CC[C@H](O)CC1=CC[C@@H]1[C@@H]2CC[C@]2(C)C(=O)CC[C@@H]12 in this test?
Marked response: f

Exam item: For this compound, state the assay outcome: COc1ccc(C(C)c2cc3c(cc2OC)OCO3)cc1 (configuration not stated)
Marked response: f

###

# Test system: B6C3F1 mice, B16 melanoma ip, median survival T/C
# test-description: NCI In Vivo Anticancer Drug Screen. Data for tumor model B16 Melanoma (intraperitoneal) in B6C3F1 mice
# recorded-conditions: endpoint: median survival time; dose: 12.5 mg/kg/injection; schedule: Q01DX009 (ip); vehicle: distilled water + Tween-80
Toxic doses and inconclusive results are not listed. How the source made its calls: active means survival T/C of 150% or more; inactive means T/C below 125% in these data.
// allowed return values: TRUE (active), FALSE (inactive)

>>> classification("CNC(=O)OCc1c(COC(=O)NC)c(-c2ccccc2)n(C)c1-c1ccccc1")
"TRUE"
>>> classification("Nc1cc(Cl)c2[nH]cnc2n1")
"FALSE"
>>> classification("NC(Cc1ccc(N(CCCl)Cc2ccccc2)cc1)C(=O)O (stereo unspecified)")
"FALSE"
>>> classification("COc1cc2c(cc1OC)-c1c3c(cc4c1[C@@H](C2)N(C)CC4)OCO3")
"FALSE"
>>> classification("CCOC(=O)c1ccc(NN=NCCF)cc1")
"TRUE"

Exam item: Which outcome was assigned to NC(=S)N/N=C\c1ncccc1OCc1cccc(N)c1 in this test?
Marked response: FALSE
